Where do these numbers come from? They come from ChEMBL document CHEMBL4145494.

pIC50: −log10 of the molar value.
Record: pIC50 reported on Aurora kinase B (Homo sapiens, UniProt Q96GD4).
Sequence (Q96GD4 whole entry): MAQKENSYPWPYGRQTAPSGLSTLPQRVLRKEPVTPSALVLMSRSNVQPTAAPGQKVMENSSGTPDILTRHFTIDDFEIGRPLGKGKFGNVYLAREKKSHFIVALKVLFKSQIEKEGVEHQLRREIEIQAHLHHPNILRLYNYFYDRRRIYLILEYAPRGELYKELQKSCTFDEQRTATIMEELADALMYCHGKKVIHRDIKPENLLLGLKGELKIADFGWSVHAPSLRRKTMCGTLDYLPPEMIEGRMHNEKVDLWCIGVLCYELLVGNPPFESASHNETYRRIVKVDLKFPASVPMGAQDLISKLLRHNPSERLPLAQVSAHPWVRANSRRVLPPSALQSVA
metric: pIC50

INSERT INTO assay_data (chem_smiles, assay_target, experimental_result) VALUES
  ('Cc1cc(Nc2cc(N3CCN(C)CC3)nc(Nc3ccc(F)c(Cl)c3)n2)n[nH]1', 'Aurora kinase B (Homo sapiens, UniProt Q96GD4)', 7.59),
  ('COC(=O)c1ccc(Nc2nc(Nc3cc(C)[nH]n3)cc(N3CCN(C)CC3)n2)cc1F', 'Aurora kinase B (Homo sapiens, UniProt Q96GD4)', 6.84),
  ('Cc1cc(Nc2cc(N3CCN(C)CC3)nc(Nc3ccc(F)cc3)n2)n[nH]1', 'Aurora kinase B (Homo sapiens, UniProt Q96GD4)', 7.12),
  ('Cc1cc(Nc2cc(N3CCN(C)CC3)nc(Nc3ccc4c(c3)OCO4)n2)n[nH]1', 'Aurora kinase B (Homo sapiens, UniProt Q96GD4)', 7.04),
  ('Cc1cc(Nc2cc(N3CCN(C)CC3)nc(Nc3cccc(F)c3)n2)n[nH]1', 'Aurora kinase B (Homo sapiens, UniProt Q96GD4)', 6.99),
  ('COC(=O)c1ccc(Nc2nc(Nc3cc(C)[nH]n3)cc(N3CCN(C)CC3)n2)cc1OC', 'Aurora kinase B (Homo sapiens, UniProt Q96GD4)', 6.35),
  ('Cc1cc(Nc2cc(N3CCN(C)CC3)nc(Nc3ccc(Cl)c(F)c3)n2)n[nH]1', 'Aurora kinase B (Homo sapiens, UniProt Q96GD4)', 7.00);

====

# Test system: U-937
# test-description: Antiproliferative activity against human U937 cells after 48 hrs by CCK8 assay
# Type: functional, cell-based
# condition-notes: U-937, 48 h
The label YES is reserved for IC50 strictly under 0.03 µM; NO covers values equal to or above it.

INSERT INTO results (chem_smiles, class_label) VALUES
  ('COC(=O)c1ccc(Nc2nc(Nc3cc(C)[nH]n3)cc(N3CCN(C)CC3)n2)cc1F', 'NO'),
  ('Cc1cc(Nc2cc(N3CCN(C)CC3)nc(Nc3ccc(Cl)c(Cl)c3)n2)n[nH]1', 'YES'),
  ('Cc1cc(Nc2cc(N3CCN(C)CC3)nc(Nc3ccc4c(c3)OCO4)n2)n[nH]1', 'NO'),
  ('COC(=O)c1ccc(Nc2nc(Nc3cc(C)[nH]n3)cc(N3CCN(C)CC3)n2)cc1OC', 'NO'),
  ('Cc1cc(Nc2cc(N3CCOCC3)nc(Nc3ccc(F)c(Cl)c3)n2)n[nH]1', 'YES'),
  ('Cc1cc(Nc2cc(N3CCN(C)CC3)nc(Nc3ccc(F)cc3)n2)n[nH]1', 'NO'),
  ('COc1ccc(Nc2nc(Nc3cc(C)[nH]n3)cc(N3CCN(C)CC3)n2)cc1OC', 'NO'),
  ('Cc1cc(Nc2cc(N3CCN(C)CC3)nc(Nc3cccc(F)c3)n2)n[nH]1', 'NO'),
  ('Cc1cc(Nc2cc(N3CCN(C)CC3)nc(Nc3ccc(Cl)c(F)c3)n2)n[nH]1', 'YES'),
  ('Cc1cc(Nc2cc(N3CCN(C)CC3)nc(Nc3ccc(F)c(Cl)c3)n2)n[nH]1', 'YES');
